Test system: SF-295
Test: NCI tumour cell line growth inhibition, 48 h
Calls of active or inactive are those of the source. No stated cut-off is given here; in the data, active = GI50 up to about 1.1 µM and inactive = higher.
Reported GI50 values for a set of molecules
Measured endpoint: GI50

1) Nc1nccc(NCC2(CO)CC(CCc3ccccc3)C2)n1 (stereo not given) :: 10.8 µM (inactive)
2) O=c1[nH]c2nc[nH]c2c(=O)n1C1CCCCC1 :: > 100 µM (inactive)
3) CCCCCCCCCCCCCCCC(=O)NCC(OCC)OCC :: > 100 µM (inactive)
4) CC(O)(CCCCCl)c1nc2ccccc2s1 (stereo not given) :: > 100 µM (inactive)
5) O=C1c2c(Br)sc(Br)c2[C@H]2OC(=S)N[C@@H]12 :: 15.2 µM (inactive)
6) C=C(CCOC)CCC1CCCCC(CN(C)C)C1=O (stereo not given) :: > 100 µM (inactive)
7) COCC1OC(OC2OCC3OC4(OCC(O)(C(C)OC)C5OCOC54)OC3C2OC)C(OC)C(O)C1OC1OC(C)C(OC)C(OC2OC(C)C3OC4(CC(O)C(OC5CC(OC6CC(C)([N+](=O)[O-])C(OC)C(C)O6)C(OC(=O)c6c(C)c(Cl)c(O)c(Cl)c6OC)C(C)O5)C(C)O4)OC3(C)C2O)C1O (stereo not given) :: > 100 µM (inactive)
8) CC1Cc2c(Br)nc(N)nc2NC1=O (stereo not given) :: > 100 µM (inactive)
9) CC(=O)OCC1OC(SC2=N/C(=C\c3ccc(Br)s3)C(=O)N2CN2CCOCC2)C(OC(C)=O)C(OC(C)=O)C1OC(C)=O (stereo not given) :: 19.5 µM (inactive)
10) COc1cc(-c2oc3ccccc3c(=O)c2O)cc(OC)c1OC :: 35.7 µM (inactive)
11) Cc1cc(C)nc(NS(=O)(=O)c2ccc(NC(=O)c3cccc4c(Nc5ccc(S(=O)(=O)N=C(N)N)cc5)c5ccc(Cl)cc5nc34)cc2)n1 :: 24.1 µM (inactive)
12) CC(=O)OC12c3ccccc3C(c3ccccc31)C1C(=O)N(Nc3ccccc3)C(=O)C12 (stereo not given) :: > 100 µM (inactive)
13) O=C1CCc2ccc(O)c(c2)Oc2ccc(cc2)[C@@H]2O[C@@H]2CO1 :: 56.1 µM (inactive)
14) COc1ccc(/C=C(\C#N)c2ccccn2)cc1OC :: 26.8 µM (inactive)
15) CC(NC(=O)/C(=C/c1ccccc1O)NC(=O)c1ccccc1)C(=O)O (stereo not given) :: 21.4 µM (inactive)
16) Nc1nc(-c2ccccc2/N=N/N2CCCC2)nc2ccccc12 :: 2.32 µM (inactive)
17) Cc1nc(N)nc(N)c1-c1ccc(Cl)c(Cl)c1 [METOPRINE] :: 0.411 µM (active)
18) c1c[nH]c(-c2ccc(-c3ccc[nH]3)c3nsnc23)c1 :: > 58.1 µM (inactive)
19) O=C(c1cccs1)N1CCc2ccccc2C1 :: > 100 µM (inactive)
20) O=C1c2ccsc2-c2cccc3cccc1c23.O=C1c2sccc2-c2cccc3cccc1c23 :: 8.79 µM (inactive)

----------
Each entry below carries its reported GI50.
Test system: MDA-MB-231
Assay: NCI tumour cell line growth inhibition, 48 h
Calls of active or inactive are those of the source. Cut-off read from the data, not from the text of the source: active = GI50 up to about 1.1 µM and inactive = higher.
Measured endpoint: GI50

1. CC[C@@]1(CCC(=O)NCCc2c[nH]c3ccccc23)CCC(=O)N2CCc3c([nH]c4ccccc34)[C@H]21 :: 40.7 µM (inactive)
2. COc1ccc(C2SCC(=O)N2NC(=O)C(C)Oc2ccc(Cl)cc2Cl)cc1 (centres undefined) :: 26.7 µM (inactive)
3. COc1cc(/C=C/C(=N\NC(=S)NN)c2sc(NNC(C)=O)nc2C)ccc1O :: > 100 µM (inactive)
4. COc1ccc(C2C3CCc4ccccc4C3=NN2S(=O)(=O)c2ccc(/C=C/C(=O)O)cc2)cc1 (centres undefined) :: 4.84 µM (inactive)
5. COc1cc([C@@H]2c3cc4c(cc3[C@@H](OC3OC5COC(C)OC5C(O)C3O)[C@H]3COC(=O)[C@H]23)OCO4)cc(OC)c1O (some centres undefined) :: 1.7 µM (inactive)
6. C=C(CN(CC)CC)C1(c2ccccc2)CC2(CCCC2)C(=O)O1 (centres undefined) :: > 100 µM (inactive)
7. C/C(CC(O)(C(F)(F)F)C(F)(F)F)=N\NC(N)=S :: > 10 µM (inactive)
8. CC(=O)OCC1OC(SC2=N/C(=C\c3ccc(Br)s3)C(=O)N2CN2CCOCC2)C(OC(C)=O)C(OC(C)=O)C1OC(C)=O (centres undefined) :: 26.7 µM (inactive)
9. O=C1/C(=C2\SCC(=O)N2c2ccccc2)SC(=S)N1c1ccccc1 :: 20.6 µM (inactive)

From: ChEMBL document CHEMBL1201862
